meta.source: paper PMC3169606

- system name: T1, Pub1p R12 (RRM1-RRM2) (Saccharomyces cerevisiae, UniProt P32588 32-242)
- T1 sequence: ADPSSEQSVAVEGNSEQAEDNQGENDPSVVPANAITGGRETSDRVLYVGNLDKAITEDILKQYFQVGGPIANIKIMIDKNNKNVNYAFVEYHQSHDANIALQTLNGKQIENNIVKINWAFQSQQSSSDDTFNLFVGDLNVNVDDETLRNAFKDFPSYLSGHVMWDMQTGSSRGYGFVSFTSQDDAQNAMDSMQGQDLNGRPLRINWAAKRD
- assay text: NMR titration; intermediate exchange; 25 mM potassium phosphate pH 7.0 (6.5-7.0 in general NMR methods), 25 mM NaCl, 0.5 mM DTT, 25 C; 100 µM protein, RNA up to 400 µM (R3) or 1:1 (R12)
- condition parameters: protein: recombinant; tags: TrxA-6xHis tag removed by TEV; single strand
measured quantity: pKd
Field pKd (float): negative decimal logarithm of the concentration in molar.

The recorded pKd for UAUAUAUAUAUAUA (ssRNA) [(UA)7] is 6.05
